assay details: yeast display, Sf9 membrane polyspecificity reagent, FACS + sequencing; frameworks hold sequencing errors
measured attribute: polyreactivity (PSR sort gate)

[[record]]
residue_string = "QVQLVEAGGGLVQAGGSLRLSCAASGRIFVPYAMGWYRQAPGKEWELVAGISWSGGSTYYADSVKGRFTISRDNAKNTVYLQMNNLKPEDTPVYYCAAAKRRRPFDYWGQGTQVTVSS"
measured_attribute = "polyreactivity (PSR sort gate)"
observed = "high polyreactivity"

[[record]]
residue_string = "QVQLVESGGGLVQAGGSLRLTCAASGRIFYGNALGWYRQAPGKERELVAAISSGGGSTYYADSVKGRFTISRDNAKNTVYLQLNSLKPEDTAVYYCAADPVHRFPGTGGFWGKGTQVTVSS"
measured_attribute = "polyreactivity (PSR sort gate)"
observed = "low polyreactivity"

[[record]]
residue_string = "QVQLEESGGGLVQAGGSLRLSCAASGIIFRFYTMGWYRQAPGKERELVAVITWSGGSTYYADSVKGRFSISRDNAMNTVYLQMNSLKPEATAVYYCNAEYTYGNSVYKYDYWGQGTQVTVSS"
measured_attribute = "polyreactivity (PSR sort gate)"
observed = "low polyreactivity"

[[record]]
residue_string = "QVQLVESGGALVQARGSLRLSCAASGRTFVWYAMGWYRQAPGKERELVAAITLSGGSTYYADSVKGRFTISRDNAKNTVYLQMTSLKPEDTAVYYCAADGTYRPEDYDYWGQGTKVTVSS"
measured_attribute = "polyreactivity (PSR sort gate)"
observed = "low polyreactivity"

[[record]]
residue_string = "QVQLVESGGGLVQAGGSLRLSCAASGTIFYVYAMGWYRQAPGKERELVDAINTSGGSTFYADSVKGRFTISRDNAKNTVYLHMKSLKPEDTAVYYCAAERYRYRSTDTMGYWGQGSQVTVSS"
measured_attribute = "polyreactivity (PSR sort gate)"
observed = "low polyreactivity"

[[record]]
residue_string = "KVQLVESGGGLVQAGGSLRLSCAASGRIFLPYAMGWYRQAPGKEREFVAAITWGAGTTYYADSVKGRFTISRDNAKNTVYLQMNSLKPEDTAVYYCAAEYRVLSWTYGYWGQGTQVTVSS"
measured_attribute = "polyreactivity (PSR sort gate)"
observed = "high polyreactivity"

[[record]]
residue_string = "QVQLVESGGGLVQAGGSLRLTCAASGSTFNRYAMGWYRQAPGKERELVAAITSTGGTNYADSVKGRFTISLDNAKNTVYLQMNSLKPEDTAFYYCAKRWLRWRSNYWGQGTQVTVSS"
measured_attribute = "polyreactivity (PSR sort gate)"
observed = "high polyreactivity"

[[record]]
residue_string = "QGQLVESGGGLVQAGGSLRLSCAASGFTISSYAMGWYRQATGKEREMVAAISSSGSRTSYADSVKVRFTISRDIAKNSVYFQMNSLKPEDTAVYYCAARPGDGGYYYWGQGTQVTVSS"
measured_attribute = "polyreactivity (PSR sort gate)"
observed = "high polyreactivity"

[[record]]
residue_string = "QVQLVESGGGLVQAGGSLRLSCAASGRTFNWYAMGWYRQAPGKERELVAAISYSGGGTYYADSVKGRFTISRDNAKNTVYLQMNSLKPEDTAVYYCAAETYYAPYVYWGQGTQVTVSS"
measured_attribute = "polyreactivity (PSR sort gate)"
observed = "high polyreactivity"

[[record]]
residue_string = "QVQLVESGGGLVQAGGSLRLSCAASGSTFRVNGMGWYRQAPGKERELVAVISWSGGSTYYADSVKGRFTISRDNAKNSVYLQMNSLKPEDTAVYYCAAKVKAGAGYHYDYYWGQGTQVTVSS"
measured_attribute = "polyreactivity (PSR sort gate)"
observed = "high polyreactivity"

[[record]]
residue_string = "QVQLVESGGGLVQAGGSLRLSCAASGSIFHPNAMGWYRQAPGKERELVAAITKSGGSTYYADSVKGRFTISRDNAKNTVYLQMNSLKPEDTAVYYCAKVSRATVTYDYWGQGTQVTVSS"
measured_attribute = "polyreactivity (PSR sort gate)"
observed = "high polyreactivity"

[[record]]
residue_string = "QVQLVESGGGLVQAGGSLRLICAASGSTSQNKAMGWYRPAPGKERELVAAITWSGDSTYYADSVKGRFTISRDNAKNTVYIQMNSLKPEDSAVYYCAAVSRFFSTYLYDYWGEGTQVTVSS"
measured_attribute = "polyreactivity (PSR sort gate)"
observed = "low polyreactivity"

[[record]]
residue_string = "QVQLGESGGGLVQAGGSRRLSCAASGLIFASNAMGWYRQAPGKEREFDAAISISGGSTYYADSVKGRFTISRDNAKNTVYLQMNSLKPEDTAVYYCAAKLYTVRRPELDYWGQGTQVTVSS"
measured_attribute = "polyreactivity (PSR sort gate)"
observed = "low polyreactivity"

[[record]]
residue_string = "QVQLVESGGGLVQAGGSLRLSCAASGRTFIGNAMGWYRQAPGKERELVAGIDSDGSTNYADSVKGRFTISRDNAKNTVYLLMNSLKPEDTAVYYCAAVQGYRFYEYYYWGQGTQVTVSW"
measured_attribute = "polyreactivity (PSR sort gate)"
observed = "low polyreactivity"

[[record]]
residue_string = "QVQLVESGGGLVQAGGSLRFRCAASGFTFGHYAIVWYRQAPGKERELVAAISKSGTRTYYADSVKGRFTISRDNAKNTVYLQMTSLKPEDTAVYYCATTAYNGYDYWGQGTQVTVSS"
measured_attribute = "polyreactivity (PSR sort gate)"
observed = "high polyreactivity"

[[record]]
residue_string = "QVQLVESGGGLVQAGGSLRLSCAASGRIFAFYARGSSRQAPGKERQLVAVISKSGGTTYYADSVKGRFTISRDNAKNTVYLQMNSLKPEDTAVYYCNKRVFYRHGYSYNYWGQGTQVTVSS"
measured_attribute = "polyreactivity (PSR sort gate)"
observed = "high polyreactivity"

[[record]]
residue_string = "QVQLVESGGGLVQAGGSLRLSCAASGRIFGRYAMGWYRQAPGKERELVATITSGGSTYYADSVKGRFTISRDNAKNTDYLQMNSLKPEDTAVYFCAAVHRGYFLAFYYWGQGTQVTVSS"
measured_attribute = "polyreactivity (PSR sort gate)"
observed = "high polyreactivity"

[[record]]
residue_string = "QVQLVESGGGLVQAGGSLRLSCAASRLTFQQYAMGWYRQAPGKERELVAAITSDGASTNYADSVKGRFTISRDNAKNTVYLQMNSLKPEDTAVYYCAARRRSRQYRYDYWGQGTQVTVSS"
measured_attribute = "polyreactivity (PSR sort gate)"
observed = "high polyreactivity"

[[record]]
residue_string = "QVQLVESGGGLVQAGGSLRLSCAASGRNFHNYAMGWYRQATRKERELVAGISSRGGSTYYADSVKGRFTISRVNAKNTVYLQMNSLKPEVTAVYYCAKDKSPYGYATNQYRKYYYWGQGTQVTVSS"
measured_attribute = "polyreactivity (PSR sort gate)"
observed = "low polyreactivity"

[[record]]
residue_string = "QVQLVESRVGLVQAGGSLRLSCAASGRIFHYYAMGWYRQAPGKERELVAAINASGTSTYYADSVKGRFTISRDNAKNTVYLQMNSLKPEDTAVYYCAAQPYYRGGSYSYTRNSKLIYWGQGTQVTVSS"
measured_attribute = "polyreactivity (PSR sort gate)"
observed = "high polyreactivity"

[[record]]
residue_string = "QVQLVESGGGLVQAGGSLRLSCAASGSIFPTYAMGWYRQAPGKERELVAAIRSGSNTYYADSLKGRFTISRDNAKNTDYLQMNCLKPEDTAVYYCNVGPQRKYPGRRTVPFGYWGQGTQVTVSS"
measured_attribute = "polyreactivity (PSR sort gate)"
observed = "low polyreactivity"


====

assay details: yeast display, Sf9 membrane polyspecificity reagent, FACS + sequencing; frameworks hold sequencing errors
measured attribute: polyreactivity (PSR sort gate)

[[record]]
residue_string = "QVQLVESGGGLVQAGGSLRLSCAASGSTFGTYAMGWYRQAPGKEREFVAVIRWSGGSTYYADSVKGRFTISRDNAKNTVYLQMNSLKPEDTAVYYCNADTRVKYVGWMYYWGQGTQVTVSS"
observed = "high polyreactivity"

[[record]]
residue_string = "QVQLVESGGGLVQAGGSLRLSCAASGRIFKRNAMGWYRQAPGNERELVAAINWSGGSTYYADSVKGRFTISRDTAKNTVYLQMNSLKPEDTAVYYCAALRVQGDYDYWGQGTQVTVSS"
observed = "high polyreactivity"

[[record]]
residue_string = "QVQLVESGGGLVQAGGSLRLSCAASGSIFGYNAMGWYRQAPATERELVATIRNGGITNYADSVKGRFTISRDNAKNTVYLQMNSLKPEDTAVYYCAADVVQYLYYFRLDYWGQGTQVTVSS"
observed = "low polyreactivity"

[[record]]
residue_string = "QVQLVESGGGLVQAGGSLRLSCAASGFTFYYYAMGGYSQAPGKERELVAAISSTGGSTYYADSVKGRFTISRDNAKNTVYLQMNSLKPEDTAVYYCNAAGYRYPGDYDFWGQGTQVTVSS"
observed = "high polyreactivity"

[[record]]
residue_string = "QVQLVESGGGLVQAGGSLRLSCAASGFIFVLYAKGWYRQAPGQERELVAAISRTGGSTYYADSVKGRFTISRDNAKNTVYLQMNSLKPEDTAVYYCAVSRSKTYDYWGQGTQVTVSS"
observed = "high polyreactivity"

[[record]]
residue_string = "QVQLVESGGGLVQAGGSLRLSCASSGSILWLNAMGWYRQAPGKERDLVAAITSRGGSTYYADSVKGRYTITRDNANNTVYLQMNSLKPEDTAVYYCATRSSRGSGSRFDYWGQGTQVTVSS"
observed = "high polyreactivity"

[[record]]
residue_string = "QVQLVESGGALVQAGGSLRLSCAASGFTFAFYAMGWYRQAPGKERELVAAISSRGGSTYYADSVKGRFTISRDNAKITVYLQMNSLKPEDTAVYYCAARGYYSVVEYYYWGQGTQVTVSS"
observed = "high polyreactivity"

[[record]]
residue_string = "QVQLVESGGGLVQAGGSLRLSWATSGFILLDNALGWYRQAPGKESEFVASINISGDRTFYADSVKGRFTISRDNAKNTVYLQMNSLKAEDTAVYYCAKEPGWGRRSTTAYDYWGQGTQVTVSS"
observed = "low polyreactivity"

[[record]]
residue_string = "QVQLVQSGGGLLQAGGSLRLSCAASGSINIYNDMGWNRQATGKERELVAAITSSGGSTYYADSVKGGFTISRDNGKNTVYLQMNSLKPEDTAVYYCAADYVDHKVWYDYWGHGTQVTVSS"
observed = "low polyreactivity"

[[record]]
residue_string = "QVQLVESGGGLVQAGGSLRLSCAASGLIFRAYAMGWSRPAPGKERELVAAITSSSGSTYYADSVKGRFTISRDNAKNTVYLQMNSLTPEDTAVYYCNAYSTFGWYDYWGQGTQVTVSS"
observed = "low polyreactivity"

[[record]]
residue_string = "QVQLVASGGGLVQSGGSLRLSCAASGFIFAYYAMGWYRQAPGTERELVAAISRGGRPYYADSVKGRFTISRDNAKNTVYFQMNSLKPEDTAVYYCAARRWRRYQSGGSYSGMDHWGQGTQVTVSS"
observed = "high polyreactivity"

